Target: PAR-2 (Rattus norvegicus, UniProt Q63645)
Construct: endogenous in cells; host or cells: cultured colonic myocytes (rat)
Sequence (Q63645 26-397): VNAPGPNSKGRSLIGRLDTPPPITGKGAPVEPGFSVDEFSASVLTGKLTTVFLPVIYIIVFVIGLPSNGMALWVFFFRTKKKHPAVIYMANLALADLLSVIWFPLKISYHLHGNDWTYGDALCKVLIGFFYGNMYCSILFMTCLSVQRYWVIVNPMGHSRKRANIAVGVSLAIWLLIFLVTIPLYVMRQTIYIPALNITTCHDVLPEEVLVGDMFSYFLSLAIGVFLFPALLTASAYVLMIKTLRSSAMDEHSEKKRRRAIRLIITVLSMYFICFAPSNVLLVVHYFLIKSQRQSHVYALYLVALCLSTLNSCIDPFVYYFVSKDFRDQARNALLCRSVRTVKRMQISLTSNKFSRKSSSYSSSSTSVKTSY
Assay: Ca2+ mobilization by colonic myocytes (Fura-2)
Assay type: cell-based
Settings: colonic myocytes; read-out: EC50, increase in [Ca2+]i
Method: Ac. Ca^2+ Mobilization by Colonic Myocytes. The activation of PAR-2 in myocytes was assessed by measuring Ca^2+ mobilization, as described in Example 3. Degranulation of HMC-1 cells (human mast cell line) with substance P was induced, and a filtrate for Ca^2+ responses in myocytes was assessed, to determine if mast cells release proteases that cleave and activate PAR-2. Myocytes were incubated in physiological salt solution (PSS) with 2.5 μM Fura-2/AM for 20 min at 37° C. […]
No end group written: not given here.
property_measured: EC50

1. SLIGRL-NH2 [AP, SLIGRL-NH2] = ~1000 nM
